Ref: ChEMBL document CHEMBL4177535

Target: Rap guanine nucleotide exchange factor 3 (Homo sapiens, UniProt O95398)
Sequence (O95398 whole entry, looked up): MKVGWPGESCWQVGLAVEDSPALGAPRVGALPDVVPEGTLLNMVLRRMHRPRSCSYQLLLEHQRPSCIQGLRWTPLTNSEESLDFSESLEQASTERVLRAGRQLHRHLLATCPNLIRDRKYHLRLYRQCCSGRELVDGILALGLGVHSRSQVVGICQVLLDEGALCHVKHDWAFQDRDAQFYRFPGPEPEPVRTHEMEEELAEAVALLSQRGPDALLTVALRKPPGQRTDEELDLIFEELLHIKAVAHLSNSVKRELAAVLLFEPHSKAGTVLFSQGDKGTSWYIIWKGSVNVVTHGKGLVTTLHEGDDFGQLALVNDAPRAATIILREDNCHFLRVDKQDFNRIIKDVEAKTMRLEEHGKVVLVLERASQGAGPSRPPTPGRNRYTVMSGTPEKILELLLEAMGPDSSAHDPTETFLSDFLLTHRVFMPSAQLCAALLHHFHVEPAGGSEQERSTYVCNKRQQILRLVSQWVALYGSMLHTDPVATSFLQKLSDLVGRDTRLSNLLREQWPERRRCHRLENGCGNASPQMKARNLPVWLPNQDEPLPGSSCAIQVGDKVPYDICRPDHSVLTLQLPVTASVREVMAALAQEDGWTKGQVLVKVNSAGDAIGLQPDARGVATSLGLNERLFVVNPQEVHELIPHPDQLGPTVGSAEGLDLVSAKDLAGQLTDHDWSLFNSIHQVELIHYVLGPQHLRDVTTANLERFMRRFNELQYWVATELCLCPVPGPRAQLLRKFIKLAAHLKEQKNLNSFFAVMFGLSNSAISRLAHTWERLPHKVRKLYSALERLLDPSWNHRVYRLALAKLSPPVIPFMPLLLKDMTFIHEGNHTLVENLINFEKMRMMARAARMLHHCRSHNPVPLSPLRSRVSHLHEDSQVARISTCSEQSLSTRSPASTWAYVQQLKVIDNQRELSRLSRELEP
Experiment: Activation of EPAC1 DEP1 deletion mutant (unknown origin) expressed in mouse NIH-3T3-A14 cells assessed as increase in Rap1b- fluorescent nucleotide methylontraniloyl-GDP nucleotide exchange by fluorescence assay
measurement-kind: EC50 (nM)

smiles-str | result-units | measured-result
CO[C@@H]1[C@@H]2OP(=O)(O)OC[C@H]2O[C@H]1n1c(Sc2ccc(Cl)cc2)nc2c(N)ncnc21 | nM | 2200
